target-desc: CCR8-NT.MBP (CCR8 N-terminus peptide aa 1-35 fused with maltose binding protein)
protocol-summary: ForteBio Octet, antibody captured on AHC biosensors, CCR8-NT.MBP as analyte
reported-endpoint: Octet Response (nm)
Give a bare numeral; the unit nm is implied.

Sample records with Octet Response (nm):
[[record]]
binder = "7B16-H2.001 (CDR H2 swapped mutant of 7-B16) (antibody, V domains shown, also called CDR swapped variant H2) VH: EVQLVESGGGLVQPKGSLKLSCAASGFTFNTYAMNWVRQAPGKGLEWVARIRSKANSYATAYAASVKDRFTISRDDSQSMLYLQMNNLKTEDTAMYYCVRGLLRYRFFDVWGAGTTVTVSS VL: DIVMTQAEPSVPVTPGESISISCRSSKSLLHSNGNTYLYWFLQRPGQSPQLLIYRMSNLASGVPDRFSGSGSGTAFTLRISRVEAEDVGVYYCMQHLEYPFTFGGGTKLEIKR"
reported_endpoint = "Octet Response (nm)"
number = 0.299

[[record]]
binder = "7B16-H3C1.001 (CDR H3 combo mutant of 7-B16) (antibody, V domains shown) VH: EVQLVESGGGLVQPKGSLKLSCAASGFTFNTYAMNWVRQAPGKGLEWVARIRSKSNNYATYYADSVKDRFTISRDDSQSMLYLQMNNLKTEDTAMYYCARGLLRARFFDVWGAGTTVTVSS VL: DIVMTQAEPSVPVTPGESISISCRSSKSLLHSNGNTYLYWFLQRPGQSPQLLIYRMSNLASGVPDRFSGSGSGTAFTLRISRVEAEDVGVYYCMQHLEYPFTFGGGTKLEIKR"
reported_endpoint = "Octet Response (nm)"
number = 0.431

[[record]]
binder = "7B16-H3C3.001 (CDR H3 combo mutant of 7-B16) (antibody, V domains shown) VH: EVQLVESGGGLVQPKGSLKLSCAASGFTFNTYAMNWVRQAPGKGLEWVARIRSKSNNYATYYADSVKDRFTISRDDSQSMLYLQMNNLKTEDTAMYYCVRGLLRARFFDAWGAGTTVTVSS VL: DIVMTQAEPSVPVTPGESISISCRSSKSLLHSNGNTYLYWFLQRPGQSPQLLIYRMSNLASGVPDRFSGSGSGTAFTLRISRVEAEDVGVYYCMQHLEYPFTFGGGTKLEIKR"
reported_endpoint = "Octet Response (nm)"
number = 0.376


As a next step, examine the binder that follows.
For this binder ( 7B16-H3C4.001 (CDR H3 combo mutant of 7-B16) (antibody, V domains shown) VH: EVQLVESGGGLVQPKGSLKLSCAASGFTFNTYAMNWVRQAPGKGLEWVARIRSKSNNYATYYADSVKDRFTISRDDSQSMLYLQMNNLKTEDTAMYYCARGLLRARFFDAWGAGTTVTVSS VL: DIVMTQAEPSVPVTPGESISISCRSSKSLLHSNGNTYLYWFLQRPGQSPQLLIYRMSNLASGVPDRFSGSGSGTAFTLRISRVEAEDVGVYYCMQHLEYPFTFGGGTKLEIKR ), measured Octet Response (nm) is 0.404
